Values compiled from ChEMBL document CHEMBL1123623.

# study_target: D(2) dopamine receptor (Bos taurus, UniProt P20288)
# Sequence (P20288 whole entry): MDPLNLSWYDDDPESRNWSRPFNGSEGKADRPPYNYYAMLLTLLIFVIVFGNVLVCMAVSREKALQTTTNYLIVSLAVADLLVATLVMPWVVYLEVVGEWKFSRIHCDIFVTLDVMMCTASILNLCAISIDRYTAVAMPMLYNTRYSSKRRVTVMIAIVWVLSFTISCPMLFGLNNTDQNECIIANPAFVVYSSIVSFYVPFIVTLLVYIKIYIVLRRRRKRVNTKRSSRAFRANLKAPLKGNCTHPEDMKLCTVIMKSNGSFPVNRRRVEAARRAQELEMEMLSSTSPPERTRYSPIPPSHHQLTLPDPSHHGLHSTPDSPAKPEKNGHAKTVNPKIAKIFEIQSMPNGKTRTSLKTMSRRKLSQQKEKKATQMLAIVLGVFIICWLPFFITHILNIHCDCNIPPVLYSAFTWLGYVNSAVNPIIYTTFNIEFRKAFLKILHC
# measurement_protocol: Ability to displace [3H]spiperone binding from anterior pituitary Dopamine receptor D2 in the absence of GTP
pIC50: −log10 of the molar value.
Returns one of True or False; True when pIC50 is >= 6.

compound: CCCN(CCO)C1CCc2cc(O)c(O)cc2C1 (centres undefined)
cat: True

compound: CN(CCCl)C1CCc2c(ccc(O)c2O)C1 (centres undefined)
cat: False

compound: CCCN(CCBr)C1CCc2cc(O)c(O)cc2C1 (centres undefined)
cat: False

compound: CC(Br)CNC1CCc2cc(O)c(O)cc2C1 (centres undefined)
cat: True

compound: CN(CCCl)C1CCc2cc(O)ccc2C1 (centres undefined)
cat: False

compound: CN(CCCl)C1CCc2cc(O)c(O)cc2C1 (centres undefined)
cat: False

compound: Oc1cc2c(cc1O)CC(NCCCl)CC2 (centres undefined)
cat: True

compound: Oc1cc2c(cc1O)CC(NCCBr)CC2 (centres undefined)
cat: True

compound: CCCN(CCCl)C1CCc2cc(O)c(O)cc2C1 (centres undefined)
cat: True
